B1: PDLIM4 (parent)
chain: FLDERLYCESHAKARVKPPEGYDV

- Variants of: B1
- EXPERIMENT DESCRIPTION: protein stability index of a GFP-peptide fusion (GPS, HEK-293T) (PSI 1-6); higher = more stable;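 also: lentivirally expressed fusions sorted by FACS into six bins by GFP to DsRed ratio, PSI derived from sequencing read proportions per bin multiplied by bin number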
- SETUP CONDITIONS: c terminus: a fixed tail appended
The entries below are paired with their reported protein stability index.
Reply with the value as a number alone.

Check out these entries, answers already filled in.
{"columns": ["MUTATION ID", "protein stability index"],
 "data": [
  ["L2G", 3.4],
  ["H11R", 1.79],
  ["H11Q", 1.34],
  ["R5T", 1.3],
  ["S10F", 1.61],
  ["G21S", 1.69],
  ["V16R", 1.5]
]}

Query: Reported protein stability index for K17F : what is it?
Reply: 2.12

Where do the numbers come from? From the supplement of paper PMC10567573.
